assayed_target: human cyclin E-CDK2 (Homo sapiens)
method_summary: FlashPlate kinase assay, cyclin E-CDK2
Type: biochemical
setup_conditions: Rb protein substrate, 1 μM ATP, 33P-ATP, 30 minutes room temperature
property_name: IC50 (µM)

Nc1nc(Nc2ccc(N3CCC(N4CCCC(O)C4)CC3)cc2)sc1C(=O)c1cc(F)cc(F)c1 (stereo not drawn); 8.05

a. COc1ccc(C(=O)c2sc(Nc3ccc(N4CCC(N(C)C)CC4)cc3)nc2N)cc1F
b. CCNC1CCN(c2ccc(Nc3nc(N)c(C(=O)c4cccc(F)c4)s3)cc2)C1 (stereo not drawn)
c. Nc1nc(Nc2ccc(N3CCC(N4CCCCC4)CC3)cc2)sc1C(=O)c1ccc(F)c(F)c1
d. Cc1ccc(C(=O)c2sc(Nc3ccc(N4CCC(N5CCCC5)CC4)cc3)nc2N)cc1F
e. COc1cccc(C(=O)c2sc(Nc3ccc(N4CCC(N(C)C)CC4)cc3)nc2N)c1[N+](=O)[O-]
Please list the entries, largest IC50 first. # answer = labels listed in requested order
a, c, d, b, e

P. Nc1nc(Nc2ccc(N3CCC(N4CCCC4)CC3)cc2)sc1C(=O)c1ccc(O)cc1
Q. CCNC1CCN(c2ccc(Nc3nc(N)c(C(=O)c4cccc(OC)c4)s3)cc2)CC1
R. Nc1nc(Nc2ccc(N3CCC(N4CCCC4)CC3)cc2)sc1C(=O)c1cccc(F)c1
S. CN(C)C1CCN(c2ccc(Nc3nc(N)c(C(=O)c4ccc(F)c(F)c4)s3)cc2)CC1
Please list the entries, largest IC50 first. A ranking is expressed here by listing the labels in the requested order.
S, Q, P, R
(S: 9.51 µM, Q: 6.1 µM, P: 4.18 µM, R: 0.86 µM)

----------
assayed_target: human cyclin D1-CDK4 (Homo sapiens, UniProt P11802)
Sequence (P11802 whole entry): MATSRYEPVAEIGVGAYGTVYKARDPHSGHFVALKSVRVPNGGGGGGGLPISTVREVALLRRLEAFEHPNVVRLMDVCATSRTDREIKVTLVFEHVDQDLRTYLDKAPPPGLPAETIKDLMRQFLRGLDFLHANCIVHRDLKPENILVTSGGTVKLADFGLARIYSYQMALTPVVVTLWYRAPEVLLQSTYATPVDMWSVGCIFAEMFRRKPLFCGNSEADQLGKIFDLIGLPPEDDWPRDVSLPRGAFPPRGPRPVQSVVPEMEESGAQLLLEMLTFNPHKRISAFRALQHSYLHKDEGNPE
Sequence (P24385 whole entry partner): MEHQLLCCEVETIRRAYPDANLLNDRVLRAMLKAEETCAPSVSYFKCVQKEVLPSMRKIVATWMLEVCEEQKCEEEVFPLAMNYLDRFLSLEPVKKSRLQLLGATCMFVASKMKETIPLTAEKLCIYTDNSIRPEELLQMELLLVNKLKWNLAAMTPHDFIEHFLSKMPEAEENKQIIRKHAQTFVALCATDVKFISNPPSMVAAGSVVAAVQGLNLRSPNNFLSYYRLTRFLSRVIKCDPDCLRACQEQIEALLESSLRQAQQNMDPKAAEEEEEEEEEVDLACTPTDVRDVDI
method_summary: FlashPlate kinase assay, cyclin D1-CDK4
Format: biochemical
setup_conditions: Rb protein substrate, 1 μM ATP, 33P-ATP, 30 minutes room temperature; read-out: CDK4 IC50
pIC50: −log10 of the molar value.
property_name: pIC50

Nc1nc(Nc2ccc(N3CCC(N4CCCCC4)CC3)cc2)sc1C(=O)c1ccc(Cl)c(Cl)c1 [Example 60]; 7.05
N#Cc1ccc(C(=O)c2sc(Nc3ccc(N4CCC(N5CCCC5)CC4)cc3)nc2N)cc1 [Example 54]; 6.67

a. CCNC1CCN(c2ccc(Nc3nc(N)c(C(=O)c4ccc(OC)c(F)c4)s3)cc2)C1 (stereo not shown) [Example 133]
b. COc1ccc(C(=O)c2sc(Nc3ccc(N4CCC(N5CCCC5)CC4)cc3)nc2N)cc1[N+](=O)[O-] [Example 107]
c. Nc1nc(Nc2ccc(N3CCC(N4CCCC(O)C4)CC3)cc2)sc1C(=O)c1cccc([N+](=O)[O-])c1 (stereo not shown) [Example 91]
d. CCc1cc(C(=O)c2sc(Nc3ccc(N4CCC(N5CCCC5)CC4)cc3)nc2N)ccc1F [Example 122]
e. N#Cc1ccc(C(=O)c2sc(Nc3ccc(N4CCC(N5CCCCC5)CC4)cc3)nc2N)cc1 [Example 55]
List these items ordered by pIC50, big to small. Could you list the labels in the order requested?
c, d, b, a, e

I. Nc1nc(Nc2ccc(N3CCC(N4CCCCC4)CC3)cc2)sc1C(=O)c1ccc(F)c(F)c1 [Example 59]
II. Nc1nc(Nc2ccc(N3CCC(N4CCCC4)CC3)cc2)sc1C(=O)c1ccc2c(c1)OCO2 [Example 25]
I'd appreciate it if you could identify which of I and II has the greater pIC50. Answer format: the label of the selected item.
II
(II: 7.77, I: 7.21)

1. CN(C)C1CCN(c2ccc(Nc3nc(N)c(C(=O)c4cc(F)cc(F)c4)s3)cc2)CC1 [Example 82]
2. Nc1nc(Nc2ccc(N3CCC(N4CCCC4)CC3)cc2)sc1C(=O)c1ccc2c(c1)OCCO2 [Example 26]
// which entry reports the smaller pIC50, 1 or 2 ? Reply briefly: the label of your chosen item.
1

I. Nc1nc(Nc2ccc(N3CCC(N4CCCC(O)C4)CC3)cc2)sc1C(=O)c1ccc(F)c(F)c1 (stereo not shown) [Example 75]
II. Nc1nc(Nc2ccc(N3CCC(N4CCCC(O)C4)CC3)cc2)sc1C(=O)c1ccc(Cl)c(Cl)c1 (stereo not shown) [Example 76]
Param metric = pIC50; output whichever of I , II has the minimum value. Return value: the label identifying the chosen record.
II
